# Tgt: UniProtKB Q16539
# Measurement Protocol: In-house p38α inhibition, radiometric
# Assay type: biochemical
# Run Parameters: read-out: IC50 on p38α (radiometric); in-house studies
pIC50: −log10 of the molar value.
Value Kind: pIC50

structure_smiles=Cc1ccc(C(=O)NC2CC2)cc1-n1ncc(C(=O)c2cccc(C#N)c2)c1N tgt="UniProtKB Q16539" recorded_result=7.43

---

# Tgt: p38α (Homo sapiens, UniProt Q16539)
# Sequence (Q16539 whole entry): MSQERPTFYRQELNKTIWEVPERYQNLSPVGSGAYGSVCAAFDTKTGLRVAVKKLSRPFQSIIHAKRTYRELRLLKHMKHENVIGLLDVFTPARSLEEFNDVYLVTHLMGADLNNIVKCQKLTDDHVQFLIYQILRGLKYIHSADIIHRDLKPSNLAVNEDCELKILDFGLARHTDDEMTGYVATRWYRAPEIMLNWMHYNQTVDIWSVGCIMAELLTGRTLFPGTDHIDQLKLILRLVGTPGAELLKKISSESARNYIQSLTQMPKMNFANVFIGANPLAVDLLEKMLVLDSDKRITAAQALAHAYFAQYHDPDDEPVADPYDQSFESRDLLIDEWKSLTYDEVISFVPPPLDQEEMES
# Measurement Protocol: In-house p38α inhibition, ELISA
# Type: biochemical
# Run Parameters: read-out: IC50 on p38α (ELISA); in-house studies
Value Kind: IC50

compound="Cc1ccc(C(=O)NC2CC2)cc1-n1ncc(C(=O)c2cccc(C#N)c2)c1N [BCT197]" value_kind=IC50 recorded_result="12 nM"
